test system: HIV-I DNA; test: Example 3: fluorescence after amplification with dye; usefulness / PCR inhibition; format: biochemical; details: dye in amplification
recorded.endpoint: usefulness of dye / inhibition of PCR

given_smiles=C[n+]1c(C=CC=C2C=CN(CCC[N+](C)(C)C)c3ccccc32)sc2ccccc21 recorded_endpoint="usefulness of dye / inhibition of PCR" value=useful
given_smiles=C[n+]1c(C=C2C=CN(CCC[N+](C)(C)C)C=C2)sc2ccccc21 recorded_endpoint="usefulness of dye / inhibition of PCR" value=useful
given_smiles=C[n+]1c(C=C2C=CN(CCC[N+](C)(C)C)c3ccccc32)oc2ccccc21 recorded_endpoint="usefulness of dye / inhibition of PCR" value=useful
given_smiles=C[n+]1c(C=C2C=CN(CCC[N+](C)(C)C)c3ccccc32)sc2ccccc21 recorded_endpoint="usefulness of dye / inhibition of PCR" value=useful

====

molecular target: double-stranded nucleic acids; assay: Binding constant (Kb) of fluorescent dye with double-stranded nucleic acids; details: Kp from Molecular Probes catalog divided by 55
Response field label: string, one of met (Kd strictly below 10 µM) or not met.

given_smiles=C[n+]1c(C=CC=C2C=CN(CCC[N+](C)(C)C)c3ccccc32)sc2ccccc21 category_label=met
given_smiles=C[n+]1c(C=C2C=CN(CCC[N+](C)(C)C)c3ccccc32)sc2ccccc21 category_label=met
given_smiles=C[n+]1c(C=C2C=CN(CCC[N+](C)(C)C)C=C2)sc2ccccc21 category_label="not met"

Decide: Kd of `C[n+]1c(C=CC=C2C=CN(CCC[N+](C)(C)C)c3ccccc32)oc2ccccc21` strictly below 10 µM?
not met

How about this compound: `C[n+]1c(C=C2C=CN(CCC[N+](C)(C)C)c3ccccc32)oc2ccccc21`
met

Same thing, different compound: `C[n+]1c(C=C2C=CN(CCC[N+](C)(C)C)C=C2)oc2ccccc21`
not met

For `C[n+]1c(C=CC=C2C=CN(CCC[N+](C)(C)C)C=C2)sc2ccccc21` then?
not met

====

test system: HIV-I DNA; assay: Example 3: fluorescence after amplification with dye; usefulness / PCR inhibition; assay type: biochemical; settings: amplified samples mixed with YOYO-1 (0.1 μmolar)
Decide using Fluorescent Signal: a value greater than or equal to 8 is Satisfied, a smaller one is Not satisfied.

Look over these answered cases.
compound=C[n+]1c(C=C2C=CN(CCC[N+](C)(C)C)c3ccccc32)oc2ccccc21 category_label=Satisfied
compound=C[n+]1c(C=C2C=CN(CCC[N+](C)(C)C)C=C2)sc2ccccc21 category_label=Satisfied
compound=C[n+]1c(C=CC=C2C=CN(CCC[N+](C)(C)C)c3ccccc32)sc2ccccc21 category_label=Satisfied
compound=C[n+]1c(C=C2C=CN(CCC[N+](C)(C)C)c3ccccc32)sc2ccccc21 category_label=Satisfied
compound="CN1/C(=C/c2cc[n+](CCC[N+](C)(C)CCC[N+](C)(C)CCC[n+]3ccc(/C=C4\\Sc5ccccc5N4C)c4ccccc43)c3ccccc23)Sc2ccccc21.[I-].[I-].[I-].[I-] [TOTO-1, reference compound]" category_label="Not satisfied"

Then this compound:
Is Fluorescent Signal at least 8? Consider `C[n+]1c(C=C2C=CN(CCC[N+](C)(C)CCC[N+](C)(C)CCCN3C=CC(=Cc4oc5ccccc5[n+]4C)c4ccccc43)c3ccccc32)oc2ccccc21`
Not satisfied
